Values from ChEMBL document CHEMBL2176901

# Tested on: MCF7
# method: Phototoxicity in 3.75 J/cm'2 UV-A irradiated human MCF7 cells after 72 hrs by MTT assay
# Assay type: functional, cell-based
# condition label: MCF7, light or radiation study
pIC50: −log10 of the molar value.
endpoint label: pIC50

Returns the measured pIC50 for the input compound. Input: Cn1c2c(cc(S(=O)(=O)c3ccccc3)c1=O)CCc1cn(-c3ccccc3)cc1-2
< 4.70

So what's the measured pIC50 for this one? Cc1c2c(cn1C)CCc1cc(S(=O)(=O)c3ccccc3)c(=O)[nH]c1-2
< 4.70

Dear colleague, I am looking for the recorded pIC50 of the following compound: Cc1c2c(c(C(=O)O)n1C)CCc1cc(S(=O)(=O)c3ccccc3)c(=O)[nH]c1-2
< 4.70

I would be grateful if you could share the reported pIC50 for Cn1cc2c(c1)-c1c(cc(S(=O)(=O)c3ccccc3)c(=O)n1C)CC2 .
< 4.70
